# TARGET_ENTITY: Protein kinase Pfmrk (Plasmodium falciparum)
Overview of reported log10 of IC50 across a group of molecules:
Response schema: value (number) is log10 of IC50 in units of µM.

Guide cases for log10 of IC50, answers given:
* COc1ccc(C(=O)/C=C/c2cccnc2)c(OC)c1OC | 1.58
* COc1ccc(C(=O)/C=C/c2ccncc2)c(OC)c1OC | 0.95
* CCOC(=O)/C(=C\c1ccccn1)C(=O)c1cccc([N+](=O)[O-])c1 | 1.79
* COc1ccc(C(=O)/C=C/c2ccccn2)c(OC)c1OC | 1.53
* O=C(/C=C/c1ccc([N+](=O)[O-])cc1)c1cccc([N+](=O)[O-])c1 | 2.43

Shift focus to the following entry.
Query: Item under review: COc1ccc(C(=O)/C=C/c2cccc3ccccc23)c(OC)c1OC . Reported log10 of IC50?
Response: 1.70

----------
Protein target, amino acids: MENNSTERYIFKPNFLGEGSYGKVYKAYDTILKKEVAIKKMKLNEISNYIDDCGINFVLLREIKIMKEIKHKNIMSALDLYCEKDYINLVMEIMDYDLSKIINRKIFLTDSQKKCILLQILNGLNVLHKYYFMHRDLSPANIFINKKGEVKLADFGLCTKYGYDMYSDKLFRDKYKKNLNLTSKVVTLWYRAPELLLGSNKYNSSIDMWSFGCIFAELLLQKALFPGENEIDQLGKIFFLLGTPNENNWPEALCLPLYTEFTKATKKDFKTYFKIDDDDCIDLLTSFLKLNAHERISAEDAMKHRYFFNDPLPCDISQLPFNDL
METRIC_NAME: pIC50
On this scale, pIC50 is minus log10 of a concentration expressed in M (mol/L).

• O=C(/C=C/c1ccccn1)c1cccc([N+](=O)[O-])c1 = 4.74
• COc1ccc(C(=O)/C=C/c2ccncc2)cc1 = 5.09

Query: Item under review: O=C(/C=C/c1ccccn1)c1ccccc1 . Reported pIC50?
Response: 4.66

Query: Item under review: Cc1ccc(C(=O)/C=C/c2ccccc2)cc1 . Reported pIC50?
Response: 4.70

Query: Item under review: COc1ccc(C(=O)/C=C/c2ccccn2)cc1 . Reported pIC50?
Response: 4.92

Query: Item under review: COc1ccc(C(=O)/C=C/c2ccc3ccccc3c2)c(OC)c1 . Reported pIC50?
Response: 4.00

----------
Target sequence: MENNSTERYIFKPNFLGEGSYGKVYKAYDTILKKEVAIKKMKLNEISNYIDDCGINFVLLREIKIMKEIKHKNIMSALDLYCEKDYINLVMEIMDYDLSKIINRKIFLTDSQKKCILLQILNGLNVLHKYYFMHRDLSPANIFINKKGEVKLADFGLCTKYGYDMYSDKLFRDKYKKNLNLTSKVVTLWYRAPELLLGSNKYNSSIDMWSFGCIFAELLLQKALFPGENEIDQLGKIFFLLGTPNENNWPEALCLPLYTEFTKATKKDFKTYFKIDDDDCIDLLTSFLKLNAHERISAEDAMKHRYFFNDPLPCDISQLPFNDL
METRIC_NAME: IC50

Guide cases for IC50, answers given:
* N#Cc1ccc(C(=O)/C=C/c2ccc(Cl)cc2)cc1 | > 100 µM
* C/C(=C\C(=O)c1cccc([N+](=O)[O-])c1)c1cccc([N+](=O)[O-])c1 | > 256 µM

Shift focus to the following entry.
Query: Item under review: COc1ccc(C(=O)/C=C/c2cccc3ccccc23)cc1 . Reported IC50?
Response: > 100 µM

Measured values drawn from ChEMBL document CHEMBL1153933 for this set.
